Biological target: human NTPDase1 (Homo sapiens)
Sequence (P49961 whole entry): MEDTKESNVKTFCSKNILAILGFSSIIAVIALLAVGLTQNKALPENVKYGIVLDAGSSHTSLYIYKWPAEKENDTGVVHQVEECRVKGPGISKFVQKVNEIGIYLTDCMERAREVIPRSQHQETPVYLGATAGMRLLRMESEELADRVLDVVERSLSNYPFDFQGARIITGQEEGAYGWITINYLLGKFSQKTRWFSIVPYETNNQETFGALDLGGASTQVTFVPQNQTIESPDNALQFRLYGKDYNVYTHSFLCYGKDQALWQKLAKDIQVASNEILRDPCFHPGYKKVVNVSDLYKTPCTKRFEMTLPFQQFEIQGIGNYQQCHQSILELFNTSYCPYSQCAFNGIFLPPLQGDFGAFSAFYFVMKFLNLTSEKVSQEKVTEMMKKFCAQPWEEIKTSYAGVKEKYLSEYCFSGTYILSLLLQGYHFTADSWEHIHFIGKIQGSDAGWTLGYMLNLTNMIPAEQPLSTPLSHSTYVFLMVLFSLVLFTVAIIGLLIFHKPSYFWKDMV
Conditions: analogue 100 μM as substrate; activity with 100 μM ATP set as 100%
Measurement kind: relative activity (%) ± SD of ATP hydrolysis, NTPDase1
Numeric answer only, unit % assumed.

Kindly note the recorded relative activity (%) ± SD of ATP hydrolysis, NTPDase1 for Nc1ncnc2c1ncn2[C@@H]1O[C@H](CO[P@](O)(=S)OP(=O)(O)CP(=O)(O)O)[C@@H](O)[C@H]1O , which is 4.4

Kindly note the recorded relative activity (%) ± SD of ATP hydrolysis, NTPDase1 for Nc1ncnc2c1ncn2[C@@H]1O[C@H](CO[P@](O)(=S)OP(=O)(O)C(Cl)(Cl)P(=O)(O)O)[C@@H](O)[C@H]1O , which is 5.3

Kindly note the recorded relative activity (%) ± SD of ATP hydrolysis, NTPDase1 for Nc1ncnc2c1ncn2[C@@H]1O[C@H](CO[P@@](O)(=S)OP(=O)(O)C(Cl)(Cl)P(=O)(O)O)[C@@H](O)[C@H]1O , which is 5.4

Kindly note the recorded relative activity (%) ± SD of ATP hydrolysis, NTPDase1 for Nc1ncnc2c1nc(S)n2[C@@H]1O[C@H](COP(=O)(O)OP(=O)(O)OP(=O)(O)O)[C@@H](O)[C@H]1O , which is 43

Kindly note the recorded relative activity (%) ± SD of ATP hydrolysis, NTPDase1 for Nc1ncnc2c1ncn2[C@@H]1O[C@H](CO[P@@](O)(=S)OP(=O)(O)CP(=O)(O)O)[C@@H](O)[C@H]1O , which is 5.4

Kindly note the recorded relative activity (%) ± SD of ATP hydrolysis, NTPDase1 for Nc1ncnc2c1ncn2[C@@H]1O[C@H](COP(=O)(O)CP(=O)(O)OP(O)(O)=S)[C@@H](O)[C@H]1O , which is 5.3
